study.system: T1, CRBN, Q96SW2;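 further: pooled lentiviral library of zinc finger degron-EGFP fusions in mCherry-positive Jurkat cells, FACS-sorted after compound exposure, with degron abundance counted by next-generation sequencing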
T1 chain: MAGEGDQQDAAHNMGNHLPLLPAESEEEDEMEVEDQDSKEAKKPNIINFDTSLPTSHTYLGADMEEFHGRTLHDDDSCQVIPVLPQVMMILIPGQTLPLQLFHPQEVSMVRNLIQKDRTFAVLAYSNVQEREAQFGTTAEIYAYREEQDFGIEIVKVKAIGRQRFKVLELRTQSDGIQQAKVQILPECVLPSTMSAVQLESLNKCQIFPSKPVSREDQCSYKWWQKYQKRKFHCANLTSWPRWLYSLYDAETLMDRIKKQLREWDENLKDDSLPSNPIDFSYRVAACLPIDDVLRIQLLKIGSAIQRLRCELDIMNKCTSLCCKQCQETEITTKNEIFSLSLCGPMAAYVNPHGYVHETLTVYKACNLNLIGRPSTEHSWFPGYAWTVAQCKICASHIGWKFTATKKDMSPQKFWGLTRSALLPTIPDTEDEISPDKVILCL
procedure.text: log2 fold change of degron read counts, EGFP-low vs EGFP+ sorted cells (limma voom), compound-induced degradation; higher = more compound-induced degradation of the degron-EGFP fusion; degrons are variants of IKZF1/3 zinc finger 2; compound dose not given here
experimental.context: Jurkat; 18 h; compound: compound 33 (diphenyl IMiD analogue)
In all, about 8,300 sequences were measured (“log2 fold change of degron read counts, EGFP-low vs EGFP+ sorted cells (limma voom), compound-induced degradation”: median about -1.1, highest 2% from about 3.2 on). The full list was thinned out, with the highest values kept by preference.
readout.kind: log2 fold change of degron read counts

residue.sequence: FICEICGAPFTQKGNLLRHIKL [46F_47I_49E_50I_52G_53A_54P_55F_67L_, Q9UKT9]
reported.value: 2.76
//
residue.sequence: FNCEQCGAPFTQKGNLLRHIKL [46F_47N_49E_50Q_52G_53A_54P_55F_67L_, Q9UKT9]
reported.value: -2.69
//
residue.sequence: FWCEICGAPFTQKGNLLRHIKL [46F_47W_49E_50I_52G_53A_54P_55F_67L_, Q9UKT9]
reported.value: 2.64
//
residue.sequence: FNCEICGAPFTQKGNLLRHIKL [46F_47N_49E_50I_52G_53A_54P_55F_67L_, Q9UKT9]
reported.value: 0.567

The reported measurements were obtained from the supplement of paper PMC12645437.
